Listing of recorded PBM E-score by entry.
Target: Ybr033w (UniProt P38073)
Sequence: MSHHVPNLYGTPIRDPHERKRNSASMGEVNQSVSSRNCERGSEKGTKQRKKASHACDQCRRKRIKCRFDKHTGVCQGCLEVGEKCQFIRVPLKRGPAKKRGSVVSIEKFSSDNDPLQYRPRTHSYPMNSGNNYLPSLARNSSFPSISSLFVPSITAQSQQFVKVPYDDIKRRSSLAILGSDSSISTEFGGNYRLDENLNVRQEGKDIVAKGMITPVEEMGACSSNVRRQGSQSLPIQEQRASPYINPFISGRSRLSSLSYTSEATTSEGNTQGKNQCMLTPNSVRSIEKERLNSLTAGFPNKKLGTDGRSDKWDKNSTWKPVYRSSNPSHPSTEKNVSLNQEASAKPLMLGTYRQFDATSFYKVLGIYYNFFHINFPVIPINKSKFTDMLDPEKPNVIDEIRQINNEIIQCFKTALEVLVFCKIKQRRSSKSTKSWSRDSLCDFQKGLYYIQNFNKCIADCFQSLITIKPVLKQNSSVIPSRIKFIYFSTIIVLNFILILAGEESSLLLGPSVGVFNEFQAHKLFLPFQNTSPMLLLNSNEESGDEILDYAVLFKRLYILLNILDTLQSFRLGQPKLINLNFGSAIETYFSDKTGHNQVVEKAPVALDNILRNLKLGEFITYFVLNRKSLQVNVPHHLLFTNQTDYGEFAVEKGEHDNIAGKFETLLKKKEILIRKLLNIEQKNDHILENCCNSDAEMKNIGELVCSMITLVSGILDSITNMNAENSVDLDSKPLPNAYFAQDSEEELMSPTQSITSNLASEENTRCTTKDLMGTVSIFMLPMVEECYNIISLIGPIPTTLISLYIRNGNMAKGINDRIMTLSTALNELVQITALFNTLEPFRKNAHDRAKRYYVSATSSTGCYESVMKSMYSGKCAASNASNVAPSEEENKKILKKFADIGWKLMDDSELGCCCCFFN
Experiment: PBM E-score (8-mer binding enrichment) (E-score (-0.5 to 0.5)); higher = stronger / more preferred TF binding
Conditions: protein concentration: 200 nM; construct: GST-full length
The full ranking holds about 33,000 sequences; the median of “E-score (-0.5 to 0.5)” is about -0.012, and the highest 2% start at about 0.29. Shown is part of a subset that was picked to be rich in the highest values.
reported.metric: PBM E-score

AGCACTGC	-0.022
CGATTAAA	0.174
ATGACGCA	-0.0224
GCTTAACA	0.0687
AAAAAGTA	0.283
CGAAAATC	0.222
AGGGGTAC	-0.205
CAGTGATA	0.0511
ATACGGTA	0.125
ATGGTCTC	-0.0831
AATCTTAC	0.137
AGCTGAAT	0.135
CACAGTCG	-0.125
AAAAAGTC	0.22
ATAGTGGA	0.0933
GATTAACA	0.396
CGTTCTGC	0.0161
ATCCGCTC	-0.102
AAACGCGA	0.0304
ACCATCAT	0.0599
GTCTGACA	0.00461
CATTAACA	0.139
AACAGTAA	0.173
GGACCAGA	-0.0563
TACCTTGA	0.0473
TACGGGGA	-0.183
AATTAACT	0.219
ACCTTCCG	-0.032
CCTGCCAG	-0.2
GTAATGGA	0.163
AGATTAAC	0.199
TATTAACA	0.291
AAAAAAGT	0.353
ATAGTGCG	0.0631

###

Target: Ybr033w (UniProt P38073)
Sequence: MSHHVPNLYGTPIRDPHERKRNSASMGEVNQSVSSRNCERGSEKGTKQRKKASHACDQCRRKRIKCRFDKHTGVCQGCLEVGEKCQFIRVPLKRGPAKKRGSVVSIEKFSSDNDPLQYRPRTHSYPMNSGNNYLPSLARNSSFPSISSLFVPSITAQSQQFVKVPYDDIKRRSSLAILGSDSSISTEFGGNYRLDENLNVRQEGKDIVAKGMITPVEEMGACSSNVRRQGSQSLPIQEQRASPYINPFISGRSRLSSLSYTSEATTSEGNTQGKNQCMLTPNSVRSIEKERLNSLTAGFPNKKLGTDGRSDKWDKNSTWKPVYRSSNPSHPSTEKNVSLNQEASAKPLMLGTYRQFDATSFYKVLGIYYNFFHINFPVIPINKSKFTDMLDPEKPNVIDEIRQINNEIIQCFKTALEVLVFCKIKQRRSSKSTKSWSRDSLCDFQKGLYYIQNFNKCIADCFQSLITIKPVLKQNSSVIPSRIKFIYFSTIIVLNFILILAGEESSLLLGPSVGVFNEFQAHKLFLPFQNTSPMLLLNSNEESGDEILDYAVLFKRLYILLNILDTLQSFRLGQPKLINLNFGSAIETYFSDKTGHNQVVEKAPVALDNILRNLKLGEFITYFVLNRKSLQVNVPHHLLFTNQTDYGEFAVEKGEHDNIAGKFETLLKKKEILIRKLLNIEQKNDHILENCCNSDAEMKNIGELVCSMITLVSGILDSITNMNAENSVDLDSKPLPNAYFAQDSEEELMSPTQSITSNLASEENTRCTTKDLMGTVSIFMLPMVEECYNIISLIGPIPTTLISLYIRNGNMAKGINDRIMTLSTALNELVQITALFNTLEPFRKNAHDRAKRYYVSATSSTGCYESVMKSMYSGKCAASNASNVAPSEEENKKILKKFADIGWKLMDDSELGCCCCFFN
Assay: PBM E-score (8-mer binding enrichment) (E-score (-0.5 to 0.5)); higher = stronger / more preferred TF binding
Conditions: protein concentration: 200 nM; construct: GST-full length
Over roughly 33,000 sequences, “E-score (-0.5 to 0.5)” has its median near -0.012; the highest 2% begin near 0.29. This excerpt belongs to a sample that is enriched for the highest values.
Listing of recorded PBM E-score by entry.
reported.metric: PBM E-score

CTTATTTC	0.235
GATCTATA	0.157
CAAGCGTA	0.093
CATAACTC	0.0871
GAGGAACA	0.171
AAATATGT	0.252
GACGACAA	0.293
AATCTGGG	0.00147
AAATAGAG	0.247
CTGGAGAA	-0.115
ATACTTTA	0.23
ACTATTTG	0.248
CTTCTTCC	0.0741
TAATCTAA	0.236
CTTTATTA	0.191
ATTATTTC	0.332
AAATAGAT	0.289
CGGATGAG	-0.0297
TAGGAACA	0.316
ACCCAGGC	-0.0962
ATTATTTG	0.335
ATTATTAG	0.152
ATTTATTA	0.293
TACTACCA	0.106
ACTATTTC	0.237
ATACTTTG	0.297
CTTTATTC	0.192
ATTCTTCA	0.129
GATCTTCC	0.33
ACAGCCCG	-0.175
AAACTTAC	0.168
TCTGTCCA	-0.0429
AGGTTACC	0.0897
AATCCAAG	0.228
GTGCGACA	-0.235
ACGTCAGG	-0.168
CCTACTTC	-0.0544
GAATATAA	0.131
CAGGAACG	-0.0646
AACGACAA	0.175
ATATATAT	0.141
CAGTGCCG	-0.105
AAATAGAC	0.101

###

Molecular target: Ybr033w (UniProt P38073)
Sequence: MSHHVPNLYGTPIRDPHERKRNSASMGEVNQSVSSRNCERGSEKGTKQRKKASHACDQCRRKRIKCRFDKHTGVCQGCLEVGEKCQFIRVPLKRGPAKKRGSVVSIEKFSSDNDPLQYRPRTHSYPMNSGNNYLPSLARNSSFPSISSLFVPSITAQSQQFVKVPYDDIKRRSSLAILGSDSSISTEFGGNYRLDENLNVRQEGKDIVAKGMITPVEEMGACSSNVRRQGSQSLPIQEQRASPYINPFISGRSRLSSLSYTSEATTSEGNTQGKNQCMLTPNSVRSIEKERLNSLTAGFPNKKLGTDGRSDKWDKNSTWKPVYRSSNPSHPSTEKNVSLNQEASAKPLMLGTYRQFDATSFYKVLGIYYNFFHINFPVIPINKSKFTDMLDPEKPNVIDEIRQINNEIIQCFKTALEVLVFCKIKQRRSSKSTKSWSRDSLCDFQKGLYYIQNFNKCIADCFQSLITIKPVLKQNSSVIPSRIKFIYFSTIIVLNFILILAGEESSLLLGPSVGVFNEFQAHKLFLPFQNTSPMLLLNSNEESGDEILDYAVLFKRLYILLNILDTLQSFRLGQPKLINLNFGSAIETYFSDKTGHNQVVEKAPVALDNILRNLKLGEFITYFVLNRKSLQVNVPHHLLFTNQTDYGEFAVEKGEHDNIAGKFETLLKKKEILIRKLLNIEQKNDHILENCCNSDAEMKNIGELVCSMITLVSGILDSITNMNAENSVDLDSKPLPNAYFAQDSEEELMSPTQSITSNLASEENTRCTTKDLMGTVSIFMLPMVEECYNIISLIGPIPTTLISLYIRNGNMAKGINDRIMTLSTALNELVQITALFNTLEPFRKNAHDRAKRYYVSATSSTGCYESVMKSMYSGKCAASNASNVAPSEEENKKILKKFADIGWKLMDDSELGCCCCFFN
Test: PBM E-score (8-mer binding enrichment) (E-score (-0.5 to 0.5)); higher = stronger / more preferred TF binding
Details: protein concentration: 200 nM; construct: GST-full length
The full ranking holds about 33,000 sequences; the median of “E-score (-0.5 to 0.5)” is about -0.012, and the highest 2% start at about 0.29. This is one part of a sample in which the highest values are shown more often than they occur.
Classify as follows. Reported PBM E-score greater than or equal to 0.1: 1.0. Reported PBM E-score below: 0.0.

ACTAGTCT	0.0
GCAAATAA	1.0
AACAATAA	1.0
ACAAATAA	1.0
ATTCATCA	1.0
CTGTGTTA	0.0
GAAAAATC	1.0
AATCCACT	1.0
TGTAATAA	1.0
AATAATAC	1.0
GAAAATAA	1.0
AAAAATAA	1.0
CATAATAA	1.0
ACGACCAG	0.0
GGGTAAGA	0.0
ATCTACCC	0.0
AATTAAGT	1.0
AAGCAAAA	1.0
ATTCTGGC	0.0
AACAATAC	1.0
AGTCACCG	0.0
CAAAAATC	1.0
AAGAATGC	1.0
TATTGTGA	1.0
CCGCTCAG	0.0
AATAATAT	1.0
AGAACCGC	0.0

Ref: the supplement of paper PMC3334620
